FYI, the data here is from ChEMBL document CHEMBL1139644.

# target-or-system: Adrenergic receptor alpha-1 (Rattus norvegicus, UniProt P15823+P23944+P43140)
# method: Antagonistic activity for Alpha-1 adrenergic receptor was measured as inhibition of phenylephrine-[…] contractions in isolated Sprague-Dawley rat anacoccygeal muscles
# Format: functional
Property: pA2; scope: individual molecules
Note: the reply should be a number with no unit written.

Examples with their reported pA2 follow.
- COc1ccc(Cl)cc1N1CCN(CCNC(=O)c2ccncc2)CC1: 7.18
- Cc1ccc(N2CCN(CCNC(=O)c3cc4ccccc4o3)CC2)cc1: 6.92

Continue with the next molecule.
Give pA2 for COc1ccc(N2CCN(CCNC(=O)c3ccco3)CC2)cc1
7.85
